ASSAYED_SYSTEM: PI3Kβ (Homo sapiens)
Construct: made in house
Sequence (P42338 whole entry): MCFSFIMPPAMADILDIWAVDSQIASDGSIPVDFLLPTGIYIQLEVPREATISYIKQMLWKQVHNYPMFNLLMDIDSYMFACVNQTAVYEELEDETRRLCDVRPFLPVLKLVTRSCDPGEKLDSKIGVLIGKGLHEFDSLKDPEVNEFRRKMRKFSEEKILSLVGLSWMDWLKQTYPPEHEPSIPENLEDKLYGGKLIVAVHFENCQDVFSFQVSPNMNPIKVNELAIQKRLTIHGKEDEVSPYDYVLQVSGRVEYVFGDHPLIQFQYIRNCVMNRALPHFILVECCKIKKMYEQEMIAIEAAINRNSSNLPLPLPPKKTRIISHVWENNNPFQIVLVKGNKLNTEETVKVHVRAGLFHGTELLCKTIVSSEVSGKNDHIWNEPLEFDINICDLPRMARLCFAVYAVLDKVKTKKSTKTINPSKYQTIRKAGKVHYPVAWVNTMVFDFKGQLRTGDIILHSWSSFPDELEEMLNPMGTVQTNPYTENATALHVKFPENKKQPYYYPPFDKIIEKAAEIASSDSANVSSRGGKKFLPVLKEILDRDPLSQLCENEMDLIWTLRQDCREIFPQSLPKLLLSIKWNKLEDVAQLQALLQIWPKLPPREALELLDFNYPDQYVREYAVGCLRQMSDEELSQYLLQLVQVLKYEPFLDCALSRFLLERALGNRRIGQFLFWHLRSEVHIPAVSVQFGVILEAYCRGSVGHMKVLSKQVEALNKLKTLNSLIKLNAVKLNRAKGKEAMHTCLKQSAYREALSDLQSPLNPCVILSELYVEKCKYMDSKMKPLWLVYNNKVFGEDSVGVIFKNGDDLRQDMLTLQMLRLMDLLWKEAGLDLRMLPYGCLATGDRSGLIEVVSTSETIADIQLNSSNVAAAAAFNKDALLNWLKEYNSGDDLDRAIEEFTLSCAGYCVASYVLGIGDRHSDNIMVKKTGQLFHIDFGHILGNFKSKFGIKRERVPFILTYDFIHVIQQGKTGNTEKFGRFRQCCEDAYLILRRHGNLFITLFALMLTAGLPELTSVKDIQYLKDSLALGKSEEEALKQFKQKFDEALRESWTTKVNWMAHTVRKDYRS
Sequence (P27986 whole entry partner): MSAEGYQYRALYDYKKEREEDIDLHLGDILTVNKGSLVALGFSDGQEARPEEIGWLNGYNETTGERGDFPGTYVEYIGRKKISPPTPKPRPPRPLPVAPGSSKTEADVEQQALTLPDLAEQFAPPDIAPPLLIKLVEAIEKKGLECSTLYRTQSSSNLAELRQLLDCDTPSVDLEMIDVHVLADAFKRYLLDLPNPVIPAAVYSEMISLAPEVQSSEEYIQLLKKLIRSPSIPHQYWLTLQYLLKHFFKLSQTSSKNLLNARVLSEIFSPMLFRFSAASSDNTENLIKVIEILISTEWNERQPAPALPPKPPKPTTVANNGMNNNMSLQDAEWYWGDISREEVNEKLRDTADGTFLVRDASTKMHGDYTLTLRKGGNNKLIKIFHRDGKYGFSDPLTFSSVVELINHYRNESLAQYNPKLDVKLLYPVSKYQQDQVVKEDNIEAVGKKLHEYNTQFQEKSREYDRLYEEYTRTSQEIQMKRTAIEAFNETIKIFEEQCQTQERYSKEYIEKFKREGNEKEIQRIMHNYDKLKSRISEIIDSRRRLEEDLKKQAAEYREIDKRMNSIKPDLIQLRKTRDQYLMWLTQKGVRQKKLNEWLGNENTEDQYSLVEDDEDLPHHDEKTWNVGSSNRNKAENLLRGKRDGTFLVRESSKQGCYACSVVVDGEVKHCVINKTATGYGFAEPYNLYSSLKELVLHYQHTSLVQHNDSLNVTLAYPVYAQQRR
ASSAY_INFO: TR-FRET enzymatic activity assay, PI3Kβ
Assay type: biochemical
RUN_PARAMETERS: Table 2a; same assay
READOUT_NAME: IC50 (nM)

Consider the reported IC50 for these compounds:
{"COMPOUND": "Nc1nc(N)c(Cl)c(N[C@H](c2nc3cc(F)cc(Cl)c3c(=O)n2-c2cc[nH]n2)C2CC2)n1 [Compound 240]", "ASSAYED_SYSTEM": "PI3Kβ (Homo sapiens)", "READOUT_NAME": "IC50", "OUTPUT_UNIT": "nM", "QUANTITATIVE_RESULT": 99}
{"COMPOUND": "Cc1ccc(Cl)c2nc([C@H](C)Nc3nc(N)nc(N)c3C#N)n(-c3cc[nH]n3)c(=O)c12 [Compound 222]", "ASSAYED_SYSTEM": "PI3Kβ (Homo sapiens)", "READOUT_NAME": "IC50", "OUTPUT_UNIT": "nM", "QUANTITATIVE_RESULT": 0.6}

a. C[C@H](Nc1nc(N)nc(C(F)F)c1Cl)c1nc2cccc(Cl)c2c(=O)n1-c1cc[nH]n1 [Compound 225]
b. N#Cc1c(N)nc(N)nc1N[C@H](c1nc2c(C(F)(F)F)cccc2c(=O)n1-c1cc[nH]n1)C1CC1 [Compound 133]
Challenge: Which record shows the lower IC50: the first, a , or the second, b ? Pick one and reply with its label.
Response given: b

A. CCC[C@H](Nc1nc(N)nc(N)c1C#N)c1nc2c(Cl)ccc(Cl)c2c(=O)n1-c1cc[nH]n1 [Compound 254]
B. C[C@H](Nc1nc(N)nc(C(F)F)c1C#N)c1nc2c(Cl)ccc(Cl)c2c(=O)n1-c1cc[nH]n1 [Compound 190]
Challenge: Endpoint returns whichever of A and B has the numerically higher IC50. Pick one and reply with its label.
Response given: B
(B: 31 nM, A: 2 nM)

---

ASSAYED_SYSTEM: PI3Kδ (Homo sapiens, UniProt O00329)
Construct: made in house
Sequence (O00329 whole entry): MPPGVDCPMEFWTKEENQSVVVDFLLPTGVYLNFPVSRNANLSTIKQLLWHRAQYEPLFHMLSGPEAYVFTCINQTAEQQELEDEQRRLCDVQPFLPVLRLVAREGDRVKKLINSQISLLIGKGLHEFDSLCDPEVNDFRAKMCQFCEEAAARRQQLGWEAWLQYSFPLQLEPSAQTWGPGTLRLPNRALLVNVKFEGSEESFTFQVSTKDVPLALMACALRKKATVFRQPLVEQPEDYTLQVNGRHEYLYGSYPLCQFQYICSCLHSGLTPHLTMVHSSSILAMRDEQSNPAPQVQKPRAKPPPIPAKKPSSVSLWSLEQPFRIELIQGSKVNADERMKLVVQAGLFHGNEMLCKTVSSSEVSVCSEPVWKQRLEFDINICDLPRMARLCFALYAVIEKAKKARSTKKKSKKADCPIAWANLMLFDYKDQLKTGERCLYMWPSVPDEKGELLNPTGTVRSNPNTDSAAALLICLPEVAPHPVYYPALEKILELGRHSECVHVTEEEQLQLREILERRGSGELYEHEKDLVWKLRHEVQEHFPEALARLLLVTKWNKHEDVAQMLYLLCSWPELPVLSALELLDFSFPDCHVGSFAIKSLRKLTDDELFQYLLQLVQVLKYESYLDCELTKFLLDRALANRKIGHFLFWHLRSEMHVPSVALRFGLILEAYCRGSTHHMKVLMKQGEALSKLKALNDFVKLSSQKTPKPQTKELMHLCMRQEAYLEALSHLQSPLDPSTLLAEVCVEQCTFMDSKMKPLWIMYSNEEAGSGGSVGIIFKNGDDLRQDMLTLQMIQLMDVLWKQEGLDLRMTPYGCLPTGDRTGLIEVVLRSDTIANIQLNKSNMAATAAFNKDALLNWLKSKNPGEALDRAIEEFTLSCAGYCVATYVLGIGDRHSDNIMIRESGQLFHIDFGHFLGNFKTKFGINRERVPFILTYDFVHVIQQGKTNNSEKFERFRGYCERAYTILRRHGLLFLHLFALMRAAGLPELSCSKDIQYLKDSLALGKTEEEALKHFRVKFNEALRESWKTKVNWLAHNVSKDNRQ
Sequence (P27986 whole entry partner): as the sequence (P27986 whole entry partner) above
ASSAY_INFO: TR-FRET enzymatic activity assay, PI3Kδ
Type: biochemical
RUN_PARAMETERS: Table 2; TR-FRET, 2x Km ATP, 30 minutes at 25° C.
pIC50: −log10 of the molar value.
READOUT_NAME: pIC50

Consider the reported pIC50 for these molecules:
{"COMPOUND_STRING": "Nc1nc(N)c(Cl)c(N[C@H](c2nc3cccc(Cl)c3c(=O)n2-c2cn[nH]c2)C2CC2)n1", "ASSAYED_SYSTEM": "PI3Kδ (Homo sapiens, UniProt O00329)", "pIC50": 8.22}
{"COMPOUND_STRING": "CC[C@H](Nc1ncnc2[nH]cnc12)c1nc2c(Cl)ccc(Cl)c2c(=O)n1-c1cn[nH]c1", "ASSAYED_SYSTEM": "PI3Kδ (Homo sapiens, UniProt O00329)", "pIC50": 7.54}
{"COMPOUND_STRING": "C[C@H](Nc1nc(N)nc(N)c1Cl)c1nc2c(Cl)ccc(Cl)c2c(=O)n1-c1cc[nH]n1", "ASSAYED_SYSTEM": "PI3Kδ (Homo sapiens, UniProt O00329)", "pIC50": 8.22}
{"COMPOUND_STRING": "CC[C@H](Nc1nc(N)nc(N)c1Cl)c1nc2cccc(Cl)c2c(=O)n1-c1cc[nH]n1", "ASSAYED_SYSTEM": "PI3Kδ (Homo sapiens, UniProt O00329)", "pIC50": 8.05}
{"COMPOUND_STRING": "CC[C@H](Nc1ncnc2ccc(Cl)nc12)c1nc2c(Cl)ccc(Cl)c2c(=O)n1-c1cn[nH]c1", "ASSAYED_SYSTEM": "PI3Kδ (Homo sapiens, UniProt O00329)", "pIC50": 8.00}

a. CC[C@H](Nc1ncnc2ccc(Cl)nc12)c1nc2c(Cl)ccc(Cl)c2c(=O)n1-c1cc[nH]n1
b. CC[C@H](Nc1ncnc2cccnc12)c1nc2c(Cl)ccc(Cl)c2c(=O)n1-c1cn[nH]c1
Challenge: Endpoint returns whichever of a and b has the numerically higher pIC50. Pick one and reply with its label.
Response given: a
(a: 8.40, b: 7.89)

---

ASSAYED_SYSTEM: PI3Kδ (Homo sapiens, UniProt O00329)
Construct: made in house
ASSAY_INFO: TR-FRET enzymatic activity assay, PI3Kδ
Type: biochemical
RUN_PARAMETERS: Table 2a; same assay
pIC50: −log10 of the molar value.
READOUT_NAME: pIC50

1. Nc1nc(N)c(Cl)c(N[C@H](c2nc3cccc(Cl)c3c(=O)n2-c2c[nH]cn2)C2CC2)n1
2. C[C@H](Nc1nc(N)nc(C(F)F)c1C#N)c1nc2cccc(C(F)(F)F)c2c(=O)n1-c1cc[nH]n1
3. CC[C@H](Nc1nc(N)nc(N)c1C#N)c1nc2c(Cl)cc(F)cc2c(=O)n1-c1cc[nH]n1
Challenge: Put the items in sequence by pIC50, from largest down. Would you mind listing the labels in the order asked for?
Response given: 3, 1, 2
(3: 8.52, 1: 8.10, 2: 7.64)

---

ASSAYED_SYSTEM: PI3Kγ (Homo sapiens)
Construct: made in house
Sequence (P48736 whole entry): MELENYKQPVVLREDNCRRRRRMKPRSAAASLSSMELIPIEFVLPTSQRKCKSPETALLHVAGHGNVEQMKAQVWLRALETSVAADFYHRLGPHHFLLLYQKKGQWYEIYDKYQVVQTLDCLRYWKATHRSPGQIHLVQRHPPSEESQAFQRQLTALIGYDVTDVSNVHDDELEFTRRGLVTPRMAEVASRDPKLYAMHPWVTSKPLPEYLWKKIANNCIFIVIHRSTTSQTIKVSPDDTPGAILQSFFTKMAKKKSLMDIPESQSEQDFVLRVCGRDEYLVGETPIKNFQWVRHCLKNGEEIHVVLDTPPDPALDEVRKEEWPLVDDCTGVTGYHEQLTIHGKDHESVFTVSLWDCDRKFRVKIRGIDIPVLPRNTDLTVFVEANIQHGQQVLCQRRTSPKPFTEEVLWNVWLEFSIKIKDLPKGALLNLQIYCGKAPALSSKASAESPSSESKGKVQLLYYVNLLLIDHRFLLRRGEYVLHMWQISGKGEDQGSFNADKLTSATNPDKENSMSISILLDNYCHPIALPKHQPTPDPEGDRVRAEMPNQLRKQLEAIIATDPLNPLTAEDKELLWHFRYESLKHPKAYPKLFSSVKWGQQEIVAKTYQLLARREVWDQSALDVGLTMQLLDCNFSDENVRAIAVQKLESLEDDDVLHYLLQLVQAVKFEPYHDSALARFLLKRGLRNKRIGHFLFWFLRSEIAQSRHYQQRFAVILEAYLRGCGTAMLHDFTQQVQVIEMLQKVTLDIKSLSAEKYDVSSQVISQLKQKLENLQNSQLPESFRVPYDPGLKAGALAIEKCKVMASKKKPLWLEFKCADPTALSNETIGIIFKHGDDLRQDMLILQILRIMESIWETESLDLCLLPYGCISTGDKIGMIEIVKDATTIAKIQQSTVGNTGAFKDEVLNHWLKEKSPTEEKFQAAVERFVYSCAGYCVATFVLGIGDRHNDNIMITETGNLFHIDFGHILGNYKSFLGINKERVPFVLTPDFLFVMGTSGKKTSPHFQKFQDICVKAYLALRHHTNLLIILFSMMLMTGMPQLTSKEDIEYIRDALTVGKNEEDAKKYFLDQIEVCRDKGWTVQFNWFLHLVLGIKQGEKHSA
ASSAY_INFO: TR-FRET enzymatic activity assay, PI3Kγ
Type: biochemical
RUN_PARAMETERS: Table 2a; same assay; read-out: PI3Kγ IC50
pIC50: −log10 of the molar value.
Overview of reported pIC50 across a group of compounds:

Consider the reported pIC50 for these compounds:
{"COMPOUND": "Nc1nc(N)c(Cl)c(N[C@@H](CO)c2nc3c(Cl)cc(F)cc3c(=O)n2-c2cc[nH]n2)n1 [Compound 149]", "RESULT": "< 5.00"}
{"COMPOUND": "C[C@H](Nc1nc(N)nc(N)c1Cl)c1nc2c(Cl)cc(F)cc2c(=O)n1-c1c[nH]cn1 [Compound 284]", "RESULT": "< 5.00"}
{"COMPOUND": "C[C@H](Nc1nc(N)nc(N)c1Cl)c1nc2c(Cl)ccc(C(F)F)c2c(=O)n1-c1cc[nH]n1 [Compound 227]", "RESULT": 5.30}
{"COMPOUND": "C[C@H](Nc1nc(N)nc(N)c1Cl)c1nc2c(F)c(F)ccc2c(=O)n1-c1cc[nH]n1 [Compound 232]", "RESULT": "< 5.00"}
{"COMPOUND": "C[C@H](Nc1nc(C(F)F)nc(N)c1C#N)c1nc2cccc(Cl)c2c(=O)n1-c1cc[nH]n1 [Compound 197]", "RESULT": "< 5.00"}

Challenge: Return reported pIC50; argument: N#Cc1c(N[C@H](c2nc3c(Cl)cc(F)cc3c(=O)n2-c2cc[nH]n2)C2CC2)nc(N)nc1C(F)F [Compound 172]
Response given: 5.46

Challenge: Return reported pIC50; argument: Cc1c[nH]nc1-n1c([C@@H](Nc2nc(N)nc(N)c2Cl)C2CC2)nc2c(C#N)cccc2c1=O [Compound 204]
Response given: < 5.00

Challenge: Return reported pIC50; argument: C[C@H](Nc1nc(N)nc(N)c1Cl)c1nc2c(Cl)ccc(Cl)c2c(=O)n1-c1cn[nH]c1 [Compound 158]
Response given: 5.28

Challenge: Return reported pIC50; argument: Cc1c[nH]nc1-n1c([C@@H](Nc2nc(N)nc(Cl)c2C#N)C2CC2)nc2c(C#N)cccc2c1=O [Compound 246]
Response given: < 5.00

Challenge: Return reported pIC50; argument: CCC[C@H](Nc1nc(N)nc(N)c1Cl)c1nc2c(Cl)ccc(Cl)c2c(=O)n1-c1cn[nH]c1 [Compound 252]
Response given: < 5.00

Challenge: Return reported pIC50; argument: C[C@H](Nc1ncnn2ccnc12)c1nc2cccc(Cl)c2c(=O)n1-c1ccc[nH]1 [Compound 291]
Response given: 6.77

Challenge: Return reported pIC50; argument: N#Cc1c(N[C@H](c2nc3c(C(F)F)cc(F)cc3c(=O)n2-c2cc[nH]n2)C2CC2)nc(N)nc1C(F)F [Compound 145]
Response given: < 5.00

Challenge: Return reported pIC50; argument: C[C@H](Nc1nc(N)nc(N)c1Cl)c1nc2c(F)ccc(Cl)c2c(=O)n1-c1cn[nH]c1 [Compound 159]
Response given: 5.80

Challenge: Return reported pIC50; argument: N#Cc1cc(F)cc2c(=O)n(-c3cc[nH]n3)c([C@@H](Nc3nc(N)nc(N)c3Cl)C3CC3)nc12 [Compound 273]
Response given: < 5.00

---

ASSAYED_SYSTEM: PI3Kδ (Homo sapiens)
Construct: made in house
ASSAY_INFO: TR-FRET enzymatic activity assay, PI3Kδ
Type: biochemical
RUN_PARAMETERS: Table 2; TR-FRET, 2x Km ATP, 30 minutes at 25° C.
READOUT_NAME: IC50 (nM)

{"COMPOUND_STRING": "CC[C@H](Nc1nc(N)nc(N)c1C#N)c1nc2cccc(Cl)c2c(=O)n1-c1cc[nH]n1", "QUANTITATIVE_RESULT": 0.6}
{"COMPOUND_STRING": "CC[C@H](Nc1ncnc2cccnc12)c1nc2c(Cl)ccc(Cl)c2c(=O)n1-c1cc[nH]n1", "QUANTITATIVE_RESULT": 10}
{"COMPOUND_STRING": "C[C@H](Nc1nc(Cl)nc2[nH]ncc12)c1nc2cccc(Cl)c2c(=O)n1-c1cc[nH]n1", "QUANTITATIVE_RESULT": 2400}
{"COMPOUND_STRING": "CC[C@H](Nc1ncnc2ccoc12)c1nc2c(Cl)ccc(Cl)c2c(=O)n1-c1cc[nH]n1", "QUANTITATIVE_RESULT": 9}
{"COMPOUND_STRING": "CC[C@H](Nc1nc(N)nc(Cl)c1C#N)c1nc2c(C#N)cccc2c(=O)n1-c1cc[nH]n1", "QUANTITATIVE_RESULT": 12}

P. CC[C@H](Nc1nc(N)nc(C)c1C#N)c1nc2c(C#N)cccc2c(=O)n1-c1cc[nH]n1
Q. Nc1nc(N)c(Cl)c(N[C@H](c2nc3c(F)ccc(Cl)c3c(=O)n2-c2cc[nH]n2)C2CC2)n1
Challenge: Which record shows the lower IC50: the first, P , or the second, Q ? Pick one and reply with its label.
Response given: P
